Value source: PubChem BioAssay AID1963843

Below: a set of entries, each annotated with reported viability, T/C.
# Test system: 616215-338-R-J1-PDC complex spheroid viability;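 further: spheroids exposed to compounds for one week before readout; percent viability relative to DMSO vehicle wells taken as 100%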
# experiment_summary: Anticancer human tumor 616215-338-R-J1-PDC patient-derived colon adenocarcinoma cell line growth inhibition [POLQ]
# test_context: second compound 10 µM; first compound 0.1 µM; active compounds read low

{"compound": "O=C(Nc1ccc(O)c(NS(=O)(=O)c2ccc(F)cc2)c1)c1ccc(-c2ccccc2)cc1 + Nc1ccc(C#CCN(C(=O)Cc2ncc(C(F)(F)F)cc2C(F)(F)F)c2ccc(F)cc2)nn1", "assay_system": "616215-338-R-J1-PDC complex spheroid viability", "unit_of_measurement": "%", "viability, T/C": 84.2}
{"compound": "O=c1[nH]cc(F)c(=O)[nH]1 + COC1C(OC(N)=O)C(O)C(Oc2ccc3c(O)c(NC(=O)c4ccc(O)c(CC=C(C)C)c4)c(=O)oc3c2C)OC1(C)C", "assay_system": "616215-338-R-J1-PDC complex spheroid viability", "unit_of_measurement": "%", "viability, T/C": 99.2}
{"compound": "COc1cc(C2c3cc4c(cc3C(OC3OC5COC(C)OC5C(O)C3O)C3COC(=O)C23)OCO4)cc(OC)c1O (stereo not given) + COC1C(OC(N)=O)C(O)C(Oc2ccc3c(O)c(NC(=O)c4ccc(O)c(CC=C(C)C)c4)c(=O)oc3c2C)OC1(C)C", "assay_system": "616215-338-R-J1-PDC complex spheroid viability", "unit_of_measurement": "%", "viability, T/C": 108}
{"compound": "CC1COCCN1c1cc(C2(S(C)(=N)=O)CC2)nc(-c2ccnc3[nH]ccc23)n1 (stereo not given) + COC1C(OC(N)=O)C(O)C(Oc2ccc3c(O)c(NC(=O)c4ccc(O)c(CC=C(C)C)c4)c(=O)oc3c2C)OC1(C)C", "assay_system": "616215-338-R-J1-PDC complex spheroid viability", "unit_of_measurement": "%", "viability, T/C": 95.3}
{"compound": "CC1COCCN1c1cc(-c2ccnn2C)c2ccnc(-c3ccn[nH]3)c2n1 (stereo not given) + Cc1cccc(N(C)C(=O)C2C(O)CCN2c2nc(C)cc(C(F)(F)F)c2C#N)c1", "assay_system": "616215-338-R-J1-PDC complex spheroid viability", "unit_of_measurement": "%", "viability, T/C": 90.6}
